# credit: patent US20240018502A1

binders and their reported EC50 hC3 cleavage
target or system: plasma purified human complement protein C3 (human) (UniProt P01024)
Sequence (P01024 23-667, chain 1 of 2): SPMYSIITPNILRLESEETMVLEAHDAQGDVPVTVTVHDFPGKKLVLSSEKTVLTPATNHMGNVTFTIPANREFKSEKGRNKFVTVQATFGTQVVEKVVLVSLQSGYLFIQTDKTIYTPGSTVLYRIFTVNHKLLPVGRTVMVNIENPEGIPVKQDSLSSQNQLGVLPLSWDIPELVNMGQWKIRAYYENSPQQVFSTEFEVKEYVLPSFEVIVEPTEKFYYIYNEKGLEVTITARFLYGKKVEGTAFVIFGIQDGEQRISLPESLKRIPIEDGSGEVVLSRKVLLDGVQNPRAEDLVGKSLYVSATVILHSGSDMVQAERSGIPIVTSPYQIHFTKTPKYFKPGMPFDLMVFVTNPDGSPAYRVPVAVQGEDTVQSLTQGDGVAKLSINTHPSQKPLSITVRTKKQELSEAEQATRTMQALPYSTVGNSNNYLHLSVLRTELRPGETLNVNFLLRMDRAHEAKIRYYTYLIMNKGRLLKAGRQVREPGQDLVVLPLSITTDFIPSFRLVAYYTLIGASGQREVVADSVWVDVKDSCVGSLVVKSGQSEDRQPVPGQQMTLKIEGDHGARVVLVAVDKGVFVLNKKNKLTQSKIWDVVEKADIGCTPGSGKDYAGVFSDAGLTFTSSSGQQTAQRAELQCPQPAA
Sequence (P01024 672-1663, chain 2 of 2): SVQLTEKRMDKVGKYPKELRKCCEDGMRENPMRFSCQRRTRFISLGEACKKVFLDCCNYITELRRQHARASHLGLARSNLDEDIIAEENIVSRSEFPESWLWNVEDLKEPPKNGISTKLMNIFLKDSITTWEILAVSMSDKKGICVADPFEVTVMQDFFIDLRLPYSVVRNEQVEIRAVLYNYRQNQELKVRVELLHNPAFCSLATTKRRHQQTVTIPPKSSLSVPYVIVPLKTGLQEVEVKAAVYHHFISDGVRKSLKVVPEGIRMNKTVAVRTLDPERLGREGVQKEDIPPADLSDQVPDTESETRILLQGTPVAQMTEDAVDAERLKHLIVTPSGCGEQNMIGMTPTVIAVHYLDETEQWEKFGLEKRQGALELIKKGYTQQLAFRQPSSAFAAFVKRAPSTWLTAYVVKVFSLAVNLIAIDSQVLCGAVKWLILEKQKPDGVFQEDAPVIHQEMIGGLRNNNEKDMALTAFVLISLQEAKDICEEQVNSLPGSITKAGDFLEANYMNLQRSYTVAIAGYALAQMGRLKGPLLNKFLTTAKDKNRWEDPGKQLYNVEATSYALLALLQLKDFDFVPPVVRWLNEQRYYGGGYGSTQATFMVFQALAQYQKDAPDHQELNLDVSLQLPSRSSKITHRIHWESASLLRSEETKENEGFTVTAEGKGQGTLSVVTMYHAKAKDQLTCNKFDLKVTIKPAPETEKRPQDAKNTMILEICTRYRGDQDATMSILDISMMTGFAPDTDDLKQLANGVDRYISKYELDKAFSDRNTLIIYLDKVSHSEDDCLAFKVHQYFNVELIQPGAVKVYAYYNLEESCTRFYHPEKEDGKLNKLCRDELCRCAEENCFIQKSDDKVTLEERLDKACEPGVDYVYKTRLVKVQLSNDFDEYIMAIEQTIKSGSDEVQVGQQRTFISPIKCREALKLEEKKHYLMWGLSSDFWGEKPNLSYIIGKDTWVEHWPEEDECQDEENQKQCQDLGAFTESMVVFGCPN
method summary: cell-based or functional assay
# unit: nM | format: bare number

INPUT: Please give the documented EC50 hC3 cleavage of MTSP-1 protease domain Q38H/I41T/D96M/ins97aA/C122S/G151D (enzyme) VVGGTDADEGEWPWQVSLHALGHGHTCGASLISPNWLVSAAHCYIDDRGFRYSDPTQWTAFLGLHDQSQRSAPGVQERRLKRIISHPFFNMFATFDYDIALLELEKPAEYSSMVRPISLPDASHVFPAGKAIWVTGWGHTQYGGTDALILQKGEIRVINQTTCENLLPQQITPRMMCVGFLSGGVDSCQGDSGGPLSSVEADGRIFQAGVVSWGDGCAQRNKPGVYTRLPLFRDWIKENTGV
OUTPUT: 10.8

INPUT: Identify measured EC50 hC3 cleavage associated with MTSP-1 protease domain I41S/S90T/ins97aV/C122S/Q192V/D217V (enzyme) VVGGTDADEGEWPWQVSLHALGQGHSCGASLISPNWLVSAAHCYIDDRGFRYSDPTQWTAFLGLHDQSQRSAPGVQERRLKRIITHPFFNDFVTFDYDIALLELEKPAEYSSMVRPISLPDASHVFPAGKAIWVTGWGHTQYGGTGALILQKGEIRVINQTTCENLLPQQITPRMMCVGFLSGGVDSCVGDSGGPLSSVEADGRIFQAGVVSWGVGCAQRNKPGVYTRLPLFRDWIKENTGV
OUTPUT: 10.5

INPUT: For MTSP-1 protease domain I41G/F97T/F99M/C122S/G151D/Q175T/Q192T/D217V (enzyme) VVGGTDADEGEWPWQVSLHALGQGHGCGASLISPNWLVSAAHCYIDDRGFRYSDPTQWTAFLGLHDQSQRSAPGVQERRLKRIISHPFFNDTTMDYDIALLELEKPAEYSSMVRPISLPDASHVFPAGKAIWVTGWGHTQYGGTDALILQKGEIRVINQTTCENLLPQTITPRMMCVGFLSGGVDSCTGDSGGPLSSVEADGRIFQAGVVSWGVGCAQRNKPGVYTRLPLFRDWIKENTGV , write its EC50 hC3 cleavage.
OUTPUT: 45.6

INPUT: Determine its reported EC50 hC3 cleavage: MTSP-1 protease domain I41D/Y59F/F99L/C122S/G151N/Q192T/V213A (enzyme) VVGGTDADEGEWPWQVSLHALGQGHDCGASLISPNWLVSAAHCFIDDRGFRYSDPTQWTAFLGLHDQSQRSAPGVQERRLKRIISHPFFNDFTLDYDIALLELEKPAEYSSMVRPISLPDASHVFPAGKAIWVTGWGHTQYGGTNALILQKGEIRVINQTTCENLLPQQITPRMMCVGFLSGGVDSCTGDSGGPLSSVEADGRIFQAGVASWGDGCAQRNKPGVYTRLPLFRDWIKENTGV
OUTPUT: 414

INPUT: Assign EC50 hC3 cleavage to the following record: MTSP-1 protease domain Q38H/I41A/D60bV/F60eR/Y60gW/D96W/F97D/ins97aT/T98G/F99L/C122S/G151N/Q175L/Q192G (enzyme) VVGGTDADEGEWPWQVSLHALGHGHACGASLISPNWLVSAAHCYIDVRGRRWSDPTQWTAFLGLHDQSQRSAPGVQERRLKRIISHPFFNWDTGLDYDIALLELEKPAEYSSMVRPISLPDASHVFPAGKAIWVTGWGHTQYGGTNALILQKGEIRVINQTTCENLLPQLITPRMMCVGFLSGGVDSCGGDSGGPLSSVEADGRIFQAGVVSWGDGCAQRNKPGVYTRLPLFRDWIKENTGV
OUTPUT: 4.9
